All figures here come from PubChem BioAssay AID1362.

Experiment: growth inhibition of WT strain, primary screen, mitochondrial fusion inhibitor project, WT and mutant strains, chemical genetic (AID 1362)
Settings: mitochondrial fusion phenotypic screen, mutant strain inhibition; at 10 µM
Screen size: about 190,000 compounds; about 4,000 (2.1%) were called active. This excerpt belongs to a sample that is enriched for actives.
Assignment: determine reported inhibition for the given molecules.
Numbers only, in %.

Some solved cases for reference:
{"Molecule": "O=C(N/N=C/c1ccc([N+](=O)[O-])cc1)c1c[nH]c2ccccc12", "inhibition (%)": 14.7}
{"Molecule": "Cc1ccc(NC(=O)C(=O)NCC2CCN(C(=O)c3cccc([N+](=O)[O-])c3)CC2)cc1", "inhibition (%)": -12.9}

Your task in this section: give inhibition for each listed record.
1. Fc1ccc(N2N=C(c3cccs3)CC2c2ccco2)c(F)c1 (stereo unspecified)
2. CCc1ccccc1NC(=S)N(CCN1CCCCCC1)Cc1ccco1

10.1
22.4
